subject-of-test: Human recombinant monoamine oxidase MAO-A (Homo sapiens)
Construct: purchased Sigma Aldrich
experiment-description: MAO-A kynuramine fluorescence inhibition assay
Assay type: biochemical
reported-conditions: Ki range class; read-out: MAO A (Ki)
Where a name gives a salt, the structure may show the parent alone.
# Lookup of reported Ki keyed by entry

| compound | subject-of-test | Ki |
| --- | --- | --- |
| CCOCCN[C@@H]1C[C@H]1c1ccccc1 (relative stereo) [Example 16, hydrochloride] | Human recombinant monoamine oxidase MAO-A (Homo sapiens) | 1 to 40 µM |

Which Ki reading was recorded for the compound N[C@@H]1CCN(CCN[C@H]2CC2c2ccc(-c3cccc(C(F)(F)F)c3)cc2)C1 (stereo partly shown) [Example 13, dihydrochloride] ?
1 to 40 µM

And what about the compound CN(C)CCNCCN[C@@H]1C[C@H]1c1ccccc1 (relative stereo) [Example 3] ?
> 40 µM

Try the compound c1ccc([C@@H]2C[C@H]2NCCN2CCCCC2)cc1 (relative stereo) [Example 9]
> 40 µM

Ok, now CN1CCN(CCN[C@@H]2C[C@H]2c2ccc(-c3cccc(C(F)(F)F)c3)cc2)CC1 (relative stereo) [Example 11, dihydrochloride]
1 to 40 µM

Would you mind doing CN(C)[C@H]1CCN(CCN[C@H]2CC2c2ccccc2)C1 (stereo partly shown) [Example 5, dihydrochloride salt] as well?
> 40 µM

Query Cl.Cl.N[C@@H]1CCN(CCN[C@H]2CC2c2ccccc2)C1 (stereo partly shown) [Example 4, dihydrochloride salt] next
> 40 µM

* * *

subject-of-test: Human recombinant monoamine oxidase MAO-B (Homo sapiens)
experiment-description: MAO-B kynuramine fluorescence inhibition assay
reported-conditions: Ki range class
Structures can show the parent of a compound that is named as a salt.
experimental-readout: Ki

| compound | Ki |
| --- | --- |
| CN(C)CCNCCN[C@@H]1C[C@H]1c1ccccc1 (relative stereo) [Example 3] | 1 to 40 µM |
| CN(C)[C@H]1CCN(CCN[C@H]2CC2c2ccccc2)C1 (stereo partly shown) [Example 5, dihydrochloride salt] | > 40 µM |
| CC(C)CSCCN[C@@H]1C[C@H]1c1ccccc1 (relative stereo) [Example 15, hydrochloride] | 1 to 40 µM |
| COCCN[C@@H]1C[C@H]1c1ccccc1 (relative stereo) [Example 17, hydrochloride] | 1 to 40 µM |
| CCN(CC)CCN[C@@H]1C[C@H]1c1ccccc1 (relative stereo) [Example 8, dihydrochloride salt] | > 40 µM |

Could you now consider this next compound?
Any idea what its Ki is? The compound is c1ccc([C@@H]2C[C@H]2NCCN2CCCCC2)cc1 (relative stereo) [Example 9]
1 to 40 µM

* * *

subject-of-test: Human recombinant monoamine oxidase MAO-A (Homo sapiens)
Construct: purchased Sigma Aldrich
Sequence (P21397 1-527): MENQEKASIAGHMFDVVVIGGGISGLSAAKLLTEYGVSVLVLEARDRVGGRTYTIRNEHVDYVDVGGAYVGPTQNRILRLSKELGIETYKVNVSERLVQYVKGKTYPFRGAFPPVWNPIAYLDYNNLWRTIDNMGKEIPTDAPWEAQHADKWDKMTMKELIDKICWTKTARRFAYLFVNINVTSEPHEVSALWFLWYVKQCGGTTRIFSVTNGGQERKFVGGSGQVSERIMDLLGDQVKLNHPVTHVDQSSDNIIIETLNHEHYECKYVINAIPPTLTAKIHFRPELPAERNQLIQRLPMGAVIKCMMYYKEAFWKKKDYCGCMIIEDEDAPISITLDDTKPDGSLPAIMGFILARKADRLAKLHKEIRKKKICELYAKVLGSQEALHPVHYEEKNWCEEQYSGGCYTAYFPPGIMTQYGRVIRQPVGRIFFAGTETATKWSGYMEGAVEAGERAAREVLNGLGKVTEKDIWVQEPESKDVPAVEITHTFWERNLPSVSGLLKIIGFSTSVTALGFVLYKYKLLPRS
experiment-description: MAO-A kynuramine fluorescence inhibition assay
Type: biochemical
reported-conditions: Ki range class; read-out: MAO A (Ki)
Structures can show the parent of a compound that is named as a salt.
# Lookup of reported Ki keyed by entry

Completed entries (count: 3):
| compound | subject-of-test | reading |
| --- | --- | --- |
| CN1CCN(CCN[C@@H]2C[C@H]2c2ccc(OCc3ccccc3)cc2)CC1 (relative stereo) [Example 10, dihydrochloride salt] | Human recombinant monoamine oxidase MAO-A (Homo sapiens) | 1 to 40 µM |
| CN1CCN(CCN[C@@H]2C[C@H]2c2ccccc2)CC1 (relative stereo) [Example 1, dihydrochloride salt] | Human recombinant monoamine oxidase MAO-A (Homo sapiens) | > 40 µM |
| CCN(CC)CCN[C@@H]1C[C@H]1c1ccccc1 (relative stereo) [Example 8, dihydrochloride salt] | Human recombinant monoamine oxidase MAO-A (Homo sapiens) | 1 to 40 µM |

Hi! What's the reported Ki for c1ccc([C@@H]2C[C@H]2NCCNC2CC2)cc1 (relative stereo) [Example 2, dihydrochloride salt] on Human recombinant monoamine oxidase MAO-A (Homo sapiens)?
1 to 40 µM

* * *

subject-of-test: Human recombinant monoamine oxidase MAO-B (Homo sapiens, UniProt P27338)
Sequence (P27338 whole entry): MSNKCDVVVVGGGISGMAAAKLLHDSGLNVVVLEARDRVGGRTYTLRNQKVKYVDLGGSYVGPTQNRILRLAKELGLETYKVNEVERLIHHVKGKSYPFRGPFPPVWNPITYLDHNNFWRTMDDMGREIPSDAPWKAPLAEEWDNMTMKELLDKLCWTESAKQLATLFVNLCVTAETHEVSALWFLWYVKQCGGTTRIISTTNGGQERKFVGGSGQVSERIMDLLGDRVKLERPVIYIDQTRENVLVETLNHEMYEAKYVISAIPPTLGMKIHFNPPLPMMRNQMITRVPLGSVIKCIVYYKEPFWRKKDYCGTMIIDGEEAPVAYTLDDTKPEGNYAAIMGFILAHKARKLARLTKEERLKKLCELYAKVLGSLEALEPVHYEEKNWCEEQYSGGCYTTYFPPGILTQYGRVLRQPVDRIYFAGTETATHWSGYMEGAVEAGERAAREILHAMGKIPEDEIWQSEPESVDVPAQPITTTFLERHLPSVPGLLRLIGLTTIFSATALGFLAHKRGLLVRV
experiment-description: MAO-B kynuramine fluorescence inhibition assay
reported-conditions: Ki range class
pKi: −log10 of the molar value. Counter-ions that a name gives are not always drawn.
experimental-readout: pKi

| molecule | reading |
| --- | --- |
| Cl.Cl.N[C@@H]1CCN(CCN[C@H]2CC2c2ccccc2)C1 (stereo partly shown) [Example 4, dihydrochloride salt] | < 4.40 |
| CN(C)[C@@H]1CCN(CCN[C@H]2CC2c2ccccc2)C1 (stereo partly shown) | 4.40 to 6.00 |
| CN1CCN(CCN[C@@H]2C[C@H]2c2ccccc2)CC1 (relative stereo) [Example 1, dihydrochloride salt] | 4.40 to 6.00 |
| CN1CCN(CCN[C@@H]2C[C@H]2c2ccc(-c3cccc(Cl)c3)cc2)CC1 (relative stereo) [Example 12, dihydrochloride] | 4.40 to 6.00 |
| CCOCCN[C@@H]1C[C@H]1c1ccccc1 (relative stereo) [Example 16, hydrochloride] | 4.40 to 6.00 |
| CN1CCN(CCN[C@@H]2C[C@H]2c2ccc(OCc3ccccc3)cc2)CC1 (relative stereo) [Example 10, dihydrochloride salt] | 4.40 to 6.00 |

Checklist item: pKi tested on Human recombinant monoamine oxidase MAO-B (Homo sapiens, UniProt P27338), entry CN1CCN(CCN[C@@H]2C[C@H]2c2ccc(-c3cccc(C(F)(F)F)c3)cc2)CC1 (relative stereo) [Example 11, dihydrochloride] , value?
4.40 to 6.00

Could you do the same for Cl.Cl.c1ccc([C@@H]2C[C@H]2NCCN2CCNCC2)cc1 (relative stereo) [Example 7, dihydrochloride salt] , please?
< 4.40

// next record c1ccc([C@@H]2C[C@H]2NCCNC2CC2)cc1 (relative stereo) [Example 2, dihydrochloride salt]
6.00 to 7.00

Queued: N[C@@H]1CCN(CCN[C@H]2CC2c2ccc(-c3cccc(C(F)(F)F)c3)cc2)C1 (stereo partly shown) [Example 13, dihydrochloride]
4.40 to 6.00
